target: Prothrombin (Homo sapiens, UniProt P00734); assay: Thrombin 1536 HTS Dose Response Confirmation. [Related pubchem assays: 1046 (Thrombin 1536 HTS; hits were confirmed in this assay)]; format: functional
Active and inactive are the calls of the source. Cut-off read from the data, not from the text of the source: actives have a measured IC50 and inactives only a lower limit.
measured.property: IC50

Answered cases to consult:
{"molecule": "COC(=O)c1n[nH]c(NC(=O)C(C)(C)C)n1", "IC50": "1.43 µM (active)"}
{"molecule": "CCOC(=O)N1CCN(C(=O)CSCC(=O)Nc2nc(-c3ccc(Cl)s3)cs2)CC1", "IC50": "1.95 µM (active)"}
{"molecule": "CCCCc1c(C)nc2ccc(Br)cc2c1SCCC#N", "IC50": "> 50 µM (not active)"}
{"molecule": "O=c1[nH]c(=O)n(Cc2ccccc2)c2c1C(C(F)(F)F)(C(F)(F)F)N=C(c1ccco1)N2", "IC50": "31.5 µM (active)"}

Take each entry in turn and give its IC50.
1. COc1ccc(C(=O)n2nc(-c3ccco3)nc2SC)cc1OC
2. Oc1ccc(Cl)cc1/C=C/c1ccc2cccc(O)c2n1

Output line:
1: 0.204 µM (active); 2: > 50 µM (not active)
